Every entry's value here was drawn from patent US10441562B2.

molecular target: dipeptidyl peptidase-4 (Homo sapiens, UniProt P27487)
Sequence (P27487 whole entry, species assumed): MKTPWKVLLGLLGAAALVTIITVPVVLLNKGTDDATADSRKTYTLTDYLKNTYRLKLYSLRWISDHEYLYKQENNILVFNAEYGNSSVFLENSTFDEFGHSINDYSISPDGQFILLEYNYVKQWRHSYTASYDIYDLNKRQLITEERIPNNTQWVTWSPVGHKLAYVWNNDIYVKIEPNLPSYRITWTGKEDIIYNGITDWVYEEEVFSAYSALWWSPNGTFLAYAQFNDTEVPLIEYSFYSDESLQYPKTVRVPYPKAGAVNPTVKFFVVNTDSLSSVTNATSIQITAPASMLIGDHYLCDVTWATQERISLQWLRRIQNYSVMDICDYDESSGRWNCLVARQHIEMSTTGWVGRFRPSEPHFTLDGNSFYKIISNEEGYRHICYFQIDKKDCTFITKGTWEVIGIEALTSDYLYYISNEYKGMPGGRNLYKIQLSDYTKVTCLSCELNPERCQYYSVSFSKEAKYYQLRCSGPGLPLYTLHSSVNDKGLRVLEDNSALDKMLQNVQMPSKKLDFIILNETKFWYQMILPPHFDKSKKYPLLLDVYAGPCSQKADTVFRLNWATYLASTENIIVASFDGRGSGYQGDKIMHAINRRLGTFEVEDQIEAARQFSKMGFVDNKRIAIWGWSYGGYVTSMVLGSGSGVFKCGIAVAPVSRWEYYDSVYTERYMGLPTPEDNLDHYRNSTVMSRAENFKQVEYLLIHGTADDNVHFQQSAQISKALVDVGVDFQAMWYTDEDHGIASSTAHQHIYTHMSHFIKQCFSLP
pIC50: −log10 of the molar value.
Would you mind labelling by pIC50? At or over 5 is criterion met, under is criterion not met.

Sample answers from the record:
compound=CC(C)=CCC/C(C)=C/CCC1=C[C@H](c2ccccc2O)OC1=O classification="criterion not met"
compound=CC(C)=CCC/C(C)=C/CCC1=C[C@H](c2ccc(C)cc2)OC1=O classification="criterion not met"
compound=CC(C)=CCC/C(C)=C/CCC1=C[C@@H](c2cc(O)ccc2O)OC1=O classification="criterion met"

Q: Form field: pIC50 at least 5? Entry: CC(C)=CCC/C(C)=C/CCC(CC(=O)c1cc(O)ccc1O)C(=O)O (centres unmarked)
A: criterion not met

Q: Is the recorded value of pIC50 equal to or greater than 5 for this compound? CC(C)=CCC/C(C)=C/CCC1=C[C@H](c2cc(O)ccc2O)OC1=O
A: criterion met

Q: Threshold query (pIC50 >= 5) on COC1(c2cc(O)ccc2O)C=C(CC/C=C(\C)CCC=C(C)C)C(=O)O1 (centres unmarked)
A: criterion not met

Q: API: above_or_equal(metric=pIC50, cutoff=5) for item CC(C)=CCC/C(C)=C/CC/C(=C/C(=O)c1cc(O)ccc1O)C(=O)O
A: criterion not met

Q: Check the entry CC(C)=CCC/C(C)=C/CCC1=C[C@H](c2c(F)cccc2F)OC1=O : does pIC50 equal or exceed 5?
A: criterion not met

Q: Is reported pIC50 greater than or equal to 5 here: C/C(=C\CC/C(C)=C/CC/C(=C/Cc1cc(O)ccc1O)C(=O)O)CO
A: criterion not met

Q: Evaluate CC(C)=CCC/C(C)=C/CCC1=C[C@H](c2ccccc2[N+](=O)[O-])OC1=O : pIC50 at minimum 5?
A: criterion not met

---

target: aldose reductase (Homo sapiens)
pIC50: −log10 of the molar value.
Please note: condition met applies when pIC50 is 5 or greater, and condition not met applies otherwise.

compound=COc1ccc([C@@H]2C=C(CC/C=C(\C)CCC=C(C)C)C(=O)O2)cc1 classification="condition not met"
compound=CC(C)=CCC/C(C)=C/CCC1=C[C@@H](c2ccccc2O)OC1=O classification="condition not met"
compound="CC(C)=CCC/C(C)=C/CCC(CC(=O)c1cc(O)ccc1O)C(=O)O (centres unmarked)" classification="condition met"
compound=CC(C)=CCC/C(C)=C/CCC1=C[C@@H](c2ccc([N+](=O)[O-])cc2)OC1=O classification="condition met"

Q: Check the entry COC1(c2cc(O)ccc2O)C=C(CC/C=C(\C)CCC=C(C)C)C(=O)O1 (centres unmarked) : does pIC50 equal or exceed 5?
A: condition not met

---

biological target: α-glucosidase (Saccharomyces cerevisiae); construct: purchased Sigma Corporation G5003; experiment: α-glucosidase inhibitory activity test in vitro; format: biochemical; conditions: read-out: α-glucosidase inhibitory activity (IC50)
Sequence (P53341 whole entry): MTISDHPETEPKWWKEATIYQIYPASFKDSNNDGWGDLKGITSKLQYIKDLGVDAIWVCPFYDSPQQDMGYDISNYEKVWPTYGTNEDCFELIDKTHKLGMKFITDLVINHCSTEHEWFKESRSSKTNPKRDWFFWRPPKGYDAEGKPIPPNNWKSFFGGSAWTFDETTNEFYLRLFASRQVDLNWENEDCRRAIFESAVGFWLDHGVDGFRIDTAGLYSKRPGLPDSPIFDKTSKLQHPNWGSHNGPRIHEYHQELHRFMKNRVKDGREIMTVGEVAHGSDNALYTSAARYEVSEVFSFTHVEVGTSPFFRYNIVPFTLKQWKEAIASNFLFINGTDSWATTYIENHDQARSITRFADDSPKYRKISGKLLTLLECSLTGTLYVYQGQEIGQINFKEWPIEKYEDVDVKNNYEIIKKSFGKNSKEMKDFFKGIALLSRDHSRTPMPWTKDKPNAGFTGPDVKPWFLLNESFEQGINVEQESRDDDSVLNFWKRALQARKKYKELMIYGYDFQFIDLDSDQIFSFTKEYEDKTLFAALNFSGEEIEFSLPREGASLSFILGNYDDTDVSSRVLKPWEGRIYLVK
pIC50: −log10 of the molar value.
I would appreciate it if you labelled entries fulfilled when pIC50 is 5 or higher, otherwise not fulfilled.

smiles_text=CC(C)=CCC/C(C)=C/CCC1=C[C@H](c2ccccc2[N+](=O)[O-])OC1=O classification=fulfilled

Q: # check: pIC50 of CC(C)=CCC/C(C)=C/CCC1=C[C@@H](c2cc(O)ccc2O)OC1=O is greater than or equal to 5
A: fulfilled

Q: Entry CC(C)=CCC/C(C)=C/CCC1=C[C@H](c2ccccc2)OC1=O : is its pIC50 no less than 5?
A: fulfilled

Q: In plain terms: is recorded pIC50 at least 5 for CC(C)=CCC/C(C)=C/CCC1=C[C@H](c2ccccc2O)OC1=O ?
A: fulfilled

Q: Is reported pIC50 greater than or equal to 5 here: CC(C)=CCC/C(C)=C/CCC1=C[C@H](c2ccc(C(C)C)cc2)OC1=O
A: not fulfilled

Q: Hello, I need to know if CC(C)=CCC/C(C)=C/CCC1=C[C@@H](c2c(F)cccc2F)OC1=O has measured pIC50 not below 5. Thanks!
A: fulfilled

Q: Assess whether reported pIC50 for CC(C)=CCC/C(C)=C/CCC1=C[C@@H](c2ccc(C(C)(C)C)cc2)OC1=O sits at 5 or higher.
A: fulfilled

Q: Check the entry COc1ccc([C@H]2C=C(CC/C=C(\C)CCC=C(C)C)C(=O)O2)cc1 : does pIC50 equal or exceed 5?
A: not fulfilled

Q: Check the entry CCc1ccc([C@H]2C=C(CC/C=C(\C)CCC=C(C)C)C(=O)O2)cc1 : does pIC50 equal or exceed 5?
A: fulfilled

Q: Does CC(C)=CCC/C(C)=C/CCC1=C[C@H](c2cc(O)ccc2O)OC1=O have a reported pIC50 of at least 5?
A: fulfilled

Q: For this molecule, is measured pIC50 5 or higher? CC(C)=CCC/C(C)=C/CCC1=C[C@@H](c2ccc(C(C)C)cc2)OC1=O
A: not fulfilled

Q: Could you please find out whether CC(C)=CCC/C(C)=C/CCC1=C[C@H](c2ccc([N+](=O)[O-])cc2)OC1=O has pIC50 that meets 5 or exceeds it?
A: not fulfilled
